Molecular target: human mAChR M4 (Homo sapiens)
Construct: expressed in transfected cells
Sequence (P08173 1-479): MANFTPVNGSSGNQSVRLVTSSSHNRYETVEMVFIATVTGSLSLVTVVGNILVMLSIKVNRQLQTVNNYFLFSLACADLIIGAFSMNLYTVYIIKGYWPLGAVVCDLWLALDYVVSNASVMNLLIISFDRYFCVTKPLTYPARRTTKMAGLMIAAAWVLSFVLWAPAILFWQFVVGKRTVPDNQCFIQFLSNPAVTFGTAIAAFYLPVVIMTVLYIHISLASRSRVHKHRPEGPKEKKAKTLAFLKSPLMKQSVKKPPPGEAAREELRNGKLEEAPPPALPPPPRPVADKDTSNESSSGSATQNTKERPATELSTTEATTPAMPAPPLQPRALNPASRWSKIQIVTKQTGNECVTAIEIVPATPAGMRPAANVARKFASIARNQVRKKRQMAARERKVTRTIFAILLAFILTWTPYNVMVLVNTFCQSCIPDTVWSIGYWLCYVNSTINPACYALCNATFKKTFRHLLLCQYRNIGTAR
Experiment: mAChR M4 cell-based functional assay (calcium mobilization, CHO-K1 hM4-Gqi5 cells)
Details: positive allosteric modulator activity, increase in the EC20 acetylcholine response, CHO-K1 hM4-Gqi5 cells; read-out: Human M4 EC50
parameter: EC50 (nM)

# annotated cases, reported EC50 shown
Cc1cc(C(=O)N2Cc3ccncc3C2)nnc1N1CCc2ncc(N3CCCn4nccc43)cc2C1	19
Cc1cc(C#N)cnc1N1CCc2ncc(N3CCOC(c4ccccn4)C3)cc2C1 (centres unmarked)	861
Cc1cc(C(=O)NCc2ccncc2)cnc1N1CCc2ncc(-c3ccc(C4CC4)nc3)cc2C1	313
Cc1cc(C(=O)NCc2ccc(N3CCOCC3)nc2)cnc1N1CCc2ncc(-c3cn(C)nc3C)cc2C1	1390

P: Cc1cc(C(=O)NCc2ccc3nn[nH]c3c2)cnc1N1CCc2ncccc2C1
Q: Cc1cc(Nc2cnc3c(c2)CN(c2ncc(C#N)cc2C)CC3)n(CCC(C)C)n1
R: [2H]C([2H])(NC(=O)c1cc(C)c(N2CCc3ncc(N4CCCn5nccc54)cc3C2)nn1)c1ccncc1
-- ask Order the records so the highest EC50 appears first and the lowest last. Your task in answering is to list the labels in the requested order.
-- reply P, Q, R
